- Study System: GST-tagged human ROCK2 catalytic domain 1-553 (Homo sapiens (Human))
- Sequence (O75116 1-553): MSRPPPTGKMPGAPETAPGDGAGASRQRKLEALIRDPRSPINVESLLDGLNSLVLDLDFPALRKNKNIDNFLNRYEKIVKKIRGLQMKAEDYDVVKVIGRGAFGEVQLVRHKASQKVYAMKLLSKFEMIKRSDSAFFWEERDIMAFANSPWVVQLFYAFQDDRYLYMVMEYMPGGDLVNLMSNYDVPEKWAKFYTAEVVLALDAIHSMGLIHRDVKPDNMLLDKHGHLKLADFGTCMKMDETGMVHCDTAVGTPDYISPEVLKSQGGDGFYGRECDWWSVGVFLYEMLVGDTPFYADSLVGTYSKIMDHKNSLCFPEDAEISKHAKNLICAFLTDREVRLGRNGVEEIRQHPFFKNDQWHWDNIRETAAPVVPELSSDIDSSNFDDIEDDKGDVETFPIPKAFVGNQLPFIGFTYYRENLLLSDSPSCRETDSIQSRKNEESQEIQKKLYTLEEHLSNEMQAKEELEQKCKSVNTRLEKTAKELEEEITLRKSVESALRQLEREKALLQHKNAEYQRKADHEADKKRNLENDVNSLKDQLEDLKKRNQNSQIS
- Experiment Notes: Inhibition of Rho-associated protein kinase isoform 2 (LANCE Ultra ULight-CREBtide FRET kinase assay)
- Assay type: biochemical
- Conditions: 30 μM was the highest concentration analyzed
- Experimental: Exemplary compounds were tested for ability to inhibit Rho-associated protein kinase isoform 1 (ROCK1) and Rho-associated protein kinase isoform 2 (ROCK2). Assay procedures and results are described below. Protein constructs were purified from a baculovirus expression system. The peptide substrate was fluorescent LANCE® Ultra ULight-CREBtide: […] […] The flurorescence resonance energy transfer (FRET) signals were read and analyzed on an Envision™ 2103 Multilabel Reader (Perkin Elmer).
Reported values of IC50 for individual entries

[
  {
    "Molecule": "Cn1cc(C(=O)Nc2cccc(-c3nnc(Nc4ccc5[nH]ncc5c4Cl)s3)c2)cn1",
    "Study System": "GST-tagged human ROCK2 catalytic domain 1-553 (Homo sapiens (Human))",
    "IC50": "< 1 µM"
  },
  {
    "Molecule": "Fc1cc(-c2ncco2)cc(-c2nnc(Nc3ccc4[nH]ncc4c3Cl)s2)c1 [Example 46J]",
    "Study System": "GST-tagged human ROCK2 catalytic domain 1-553 (Homo sapiens (Human))",
    "IC50": "< 1 µM"
  },
  {
    "Molecule": "COCCn1ccnc1-c1cccc(-c2nnc(Nc3ccc4[nH]ncc4c3Cl)s2)c1.O=C(O)C(F)(F)F",
    "Study System": "GST-tagged human ROCK2 catalytic domain 1-553 (Homo sapiens (Human))",
    "IC50": "< 1 µM"
  },
  {
    "Molecule": "O=C(Nc1cccc(-c2nnc(Nc3ccc4[nH]ncc4c3Cl)s2)c1)c1cc(O)cc(O)c1 [Example 35AS]",
    "Study System": "GST-tagged human ROCK2 catalytic domain 1-553 (Homo sapiens (Human))",
    "IC50": "< 1 µM"
  },
  {
    "Molecule": "CS(=O)(=O)Nc1cccc(-c2nnc(Nc3ccc4[nH]ncc4c3)s2)c1",
    "Study System": "GST-tagged human ROCK2 catalytic domain 1-553 (Homo sapiens (Human))",
    "IC50": "< 1 µM"
  },
  {
    "Molecule": "CC(=O)Nc1cc(-c2ncco2)cc(-c2nnc(Nc3ccc4[nH]ncc4c3Cl)s2)c1.O=C(O)C(F)(F)F [Example 46M]",
    "Study System": "GST-tagged human ROCK2 catalytic domain 1-553 (Homo sapiens (Human))",
    "IC50": "< 1 µM"
  },
  {
    "Molecule": "CC(=O)N(C)c1cccc(-c2nnc(Nc3ccc4[nH]ncc4c3Cl)s2)c1 [Example 35AZ]",
    "Study System": "GST-tagged human ROCK2 catalytic domain 1-553 (Homo sapiens (Human))",
    "IC50": "1 to 15 µM"
  },
  {
    "Molecule": "CN(CC(O)CO)C(=O)c1cccc(-c2nnc(Nc3ccc4[nH]ncc4c3)s2)c1 (centres unmarked)",
    "Study System": "GST-tagged human ROCK2 catalytic domain 1-553 (Homo sapiens (Human))",
    "IC50": "1 to 15 µM"
  }
]

----------
- Study System: GST-tagged human ROCK1 catalytic domain 1-477 (Homo sapiens (Human))
- Experiment Notes: Inhibition of Rho-associated protein kinase isoform 1 (LANCE Ultra ULight-CREBtide FRET kinase assay)
- Format: biochemical
- Conditions: 30 μM was the highest concentration analyzed
Parameter Measured: IC50

[
  {
    "Compound": "Cc1cnn(CC(=O)Nc2cccc(-c3nnc(N(C)c4ccc5[nH]ncc5c4Cl)s3)c2)c1 [Example 54C]",
    "Parameter Measured": "IC50",
    "Result": "1 to 15 µM"
  },
  {
    "Compound": "CCOc1ccc(CC(=O)Nc2cccc(-c3nnc(Nc4ccc5[nH]ncc5c4Cl)s3)c2)cc1 [Example 35BE]",
    "Parameter Measured": "IC50",
    "Result": "> 30 µM"
  },
  {
    "Compound": "CC(C)(O)c1ccc(-c2cn3cccc(-c4nnc(Nc5ccc6[nH]ncc6c5Cl)s4)c3n2)cc1 [Example 50F]",
    "Parameter Measured": "IC50",
    "Result": "< 1 µM"
  },
  {
    "Compound": "CN(c1nnc(-c2cccc(NC(=O)Cc3ccc(C#N)cc3)c2)s1)c1ccc2[nH]ncc2c1Cl [Example 54B]",
    "Parameter Measured": "IC50",
    "Result": "> 30 µM"
  },
  {
    "Compound": "CCc1cn2cccc(-c3nnc(Nc4ccc5[nH]ncc5c4Cl)s3)c2n1 [Example 52D]",
    "Parameter Measured": "IC50",
    "Result": "< 1 µM"
  },
  {
    "Compound": "Cc1cc(C(=O)Nc2cccc(-c3nnc(Nc4ccc5[nH]ncc5c4)s3)c2)[nH]n1",
    "Parameter Measured": "IC50",
    "Result": "1 to 15 µM"
  },
  {
    "Compound": "CC(C)C(=O)Nc1cccc(-c2nnc(Nc3ccc4[nH]ncc4c3Cl)s2)c1 [Example 35V]",
    "Parameter Measured": "IC50",
    "Result": "< 1 µM"
  },
  {
    "Compound": "Brc1ccc(-c2cn3cccc(-c4nnc(Nc5ccc6[nH]ncc6c5)s4)c3n2)cc1 [Example 52G]",
    "Parameter Measured": "IC50",
    "Result": "> 30 µM"
  }
]

----------
Reported values of IC50 for individual entries
- Study System: GST-tagged human ROCK2 catalytic domain 1-553 (Homo sapiens (Human))
- Experiment Notes: Inhibition of Rho-associated protein kinase isoform 2 (LANCE Ultra ULight-CREBtide FRET kinase assay)
- Type: biochemical
- Conditions: 30 μM was the highest concentration analyzed

[
  {
    "Compound": "c1cc2[nH]ncc2cc1Nc1nnc(C2CCCNC2)s1 (centres unmarked) [Example A-33]",
    "Study System": "GST-tagged human ROCK2 catalytic domain 1-553 (Homo sapiens (Human))",
    "IC50": "1 to 15 µM"
  },
  {
    "Compound": "CCc1cn2cccc(-c3nnc(Nc4ccc5[nH]ncc5c4Cl)s3)c2n1 [Example 52D]",
    "Study System": "GST-tagged human ROCK2 catalytic domain 1-553 (Homo sapiens (Human))",
    "IC50": "< 1 µM"
  },
  {
    "Compound": "N[C@@H](Cc1ccc(O)cc1)C(=O)Nc1cccc(-c2nnc(Nc3ccc4[nH]ncc4c3Cl)s2)c1.O=C(O)C(F)(F)F [Example 35AK]",
    "Study System": "GST-tagged human ROCK2 catalytic domain 1-553 (Homo sapiens (Human))",
    "IC50": "< 1 µM"
  },
  {
    "Compound": "Cc1cnn(CC(=O)Nc2cccc(-c3nnc(Nc4ccc5[nH]ncc5c4Cl)s3)c2)c1 [Example 35BI]",
    "Study System": "GST-tagged human ROCK2 catalytic domain 1-553 (Homo sapiens (Human))",
    "IC50": "< 1 µM"
  },
  {
    "Compound": "Cn1cc(C(=O)Nc2cc(F)c(F)c(-c3nnc(Nc4ccc5[nH]ncc5c4)s3)c2)cn1 [Example 35BZ]",
    "Study System": "GST-tagged human ROCK2 catalytic domain 1-553 (Homo sapiens (Human))",
    "IC50": "< 1 µM"
  },
  {
    "Compound": "CCOC(=O)N(c1nnc(-c2cccc(NC(=O)Cc3ccc(F)cc3)c2)s1)c1ccc2[nH]ncc2c1Cl [Example 54A]",
    "Study System": "GST-tagged human ROCK2 catalytic domain 1-553 (Homo sapiens (Human))",
    "IC50": "1 to 15 µM"
  },
  {
    "Compound": "c1cc(-c2nnco2)cc(-c2nnc(Nc3ccc4[nH]ncc4c3)s2)c1 [Example A-6]",
    "Study System": "GST-tagged human ROCK2 catalytic domain 1-553 (Homo sapiens (Human))",
    "IC50": "> 30 µM"
  },
  {
    "Compound": "FC(F)(F)c1cn2cccc(-c3nnc(Nc4ccc5[nH]ncc5c4Cl)s3)c2n1 [Example 52C]",
    "Study System": "GST-tagged human ROCK2 catalytic domain 1-553 (Homo sapiens (Human))",
    "IC50": "< 1 µM"
  }
]

----------
Reported values of IC50 for individual entries
- Study System: GST-tagged human ROCK1 catalytic domain 1-477 (Homo sapiens (Human), UniProt Q13464)
- Sequence (Q13464 1-477): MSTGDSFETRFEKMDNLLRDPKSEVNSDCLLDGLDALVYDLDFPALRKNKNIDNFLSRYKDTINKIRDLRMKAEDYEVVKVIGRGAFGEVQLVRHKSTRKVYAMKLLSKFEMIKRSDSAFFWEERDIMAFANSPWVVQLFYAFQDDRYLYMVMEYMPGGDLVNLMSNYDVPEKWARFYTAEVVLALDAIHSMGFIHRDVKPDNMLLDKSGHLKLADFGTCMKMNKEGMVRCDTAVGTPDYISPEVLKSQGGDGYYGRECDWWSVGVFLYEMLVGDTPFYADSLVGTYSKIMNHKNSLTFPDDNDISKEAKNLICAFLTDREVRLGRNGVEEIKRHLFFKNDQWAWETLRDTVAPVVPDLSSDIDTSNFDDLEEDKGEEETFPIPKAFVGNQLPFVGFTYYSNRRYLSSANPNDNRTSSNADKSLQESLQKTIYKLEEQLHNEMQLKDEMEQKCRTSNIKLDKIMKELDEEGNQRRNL
- Experiment Notes: Inhibition of Rho-associated protein kinase isoform 1 (LANCE Ultra ULight-CREBtide FRET kinase assay)
- Assay type: biochemical
- Conditions: 30 μM was the highest concentration analyzed
Parameter Measured: IC50

[
  {
    "Compound": "CC(=O)Oc1cccc(-c2nnc(Nc3ccc4[nH]ncc4c3Cl)s2)c1 [Example 35AG]",
    "Result": "> 30 µM"
  },
  {
    "Compound": "C=Cc1c(Nc2nnc(-c3cccc(NC(C)=O)c3)s2)ccc2[nH]ncc12.O=C(O)C(F)(F)F [Example 35K]",
    "Result": "1 to 15 µM"
  },
  {
    "Compound": "CC(=O)Nc1cc(-c2ncco2)cc(-c2nnc(Nc3ccc4[nH]ncc4c3Cl)s2)c1.O=C(O)C(F)(F)F [Example 46M]",
    "Result": "> 30 µM"
  },
  {
    "Compound": "CN1CCN(c2cccc(-c3nnc(Nc4ccc5[nH]ncc5c4Cl)s3)c2)C(=O)C1",
    "Result": "1 to 15 µM"
  }
]
